Value source: the RNAGym collection of RNA variant scans (doi:10.1101/gad.245936.114)

B1: tRNA (parent)
chain: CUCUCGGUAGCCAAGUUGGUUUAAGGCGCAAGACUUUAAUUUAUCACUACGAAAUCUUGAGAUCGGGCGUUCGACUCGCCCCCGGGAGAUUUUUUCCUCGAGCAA

Variants of: B1
Test: nonsense suppression (GFP-seq) (ratio to wild type); higher = more function; SUP4oc tRNA, yeast GFP reporter sort-seq
Fewer inactive variants are shown than the library holds.
In this section, each of the variants is paired with its reported nonsense suppression.
// keep it numeric: no unit symbol after the value

G86C A87G = 0.0881
C27U C80U = 0.0446
A30G G61A = 0.75
A13C C75U G85U = 0.333
U63G C72U = 0.0334

Q: Would you mind telling me what nonsense suppression value was observed for A54C G73C ?
Result: 0.0591

Q: Need nonsense suppression of G7A A24C , thanks.
Result: 0.123
